- measurementDescription: chemical genetic growth profiling, strain panel (AID 1159580);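 note: tested at 20 µM; growth read once vehicle control cultures reached saturation at 30 °C; 1 = growth at the plate median or of vehicle wells; lower values mean less growth of the strain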
- setupConditions: S. cerevisiae deletion strains, growth OD, locus YDL040C, strain nat1
Among all 5,500 compounds or so, about 2,000 (36%) were called active. Inconclusive results (about 18%) are left out. Cut-off read from the data, not from the text of the source: active = normalized growth mostly below about 0.91 (no sharp cut-off); inconclusive = no clear call, values can overlap the other calls; inactive = mostly above about 0.92. This is one part of the list.
I would appreciate it if you answered using one of these outcomes: label 1 = active, label 0 = inactive

-- ask So what was the verdict on CCCCCCCCCc1ccc(O)cc1 in this test?
-- reply label 1

-- ask Same for O=c1cc(-c2ccc(O)cc2)oc2ccc(O)cc12
-- reply label 0

-- ask Same for C[C@@H]1CC[C@@]2(OC1)OC1C(O)C3C4CC[C@H]5C[C@H](O[C@@H]6O[C@H](CO)[C@H](O[C@@H]7O[C@H](CO)[C@@H](O)[C@H](O[C@@H]8OC[C@@H](O)[C@H](O)[C@H]8O)[C@H]7O[C@@H]7O[C@H](CO)[C@H](O)[C@H](O[C@@H]8O[C@H](CO)[C@@H](O)[C@H](O)[C@H]8O)[C@H]7O)[C@H](O)[C@H]6O)[C@H](O)C[C@]5(C)C4CC[C@]3(C)C1[C@@H]2C (stereo partly specified)
-- reply label 0

-- ask Same for CC(=O)Nc1ccc(OC(=O)c2ccccc2O)cc1
-- reply label 0

-- ask Same for OC1C(O)C(O)C(O)C(O)C1O (stereo unspecified)
-- reply label 0

-- ask Same for NCCc1ccc(O)cc1
-- reply label 0

Further cases:
-- ask So what was the verdict on O=C1c2c(O)ccc(O)c2C(=O)c2c(NCCNCCO)ccc(NCCNCCO)c21 in this test?
-- reply label 0

-- ask Same for CN(N=O)C(=O)N[C@@H]1[C@@H](O)[C@H](O)[C@@H](CO)O[C@@H]1O
-- reply label 0

-- ask Same for COc1cccc2c1cc([N+](=O)[O-])c1c(C(=O)O)cc3c(c12)OCO3
-- reply label 0

-- ask Same for O=c1cc(-c2ccc(O)c(O)c2)oc2ccccc12
-- reply label 0

-- ask Same for COc1cc2cc[n+]3cc4c(OC)c(OC)ccc4cc3c2cc1OC
-- reply label 0

-- ask Same for CC[C@]12C=CCN3CC[C@@]4(c5ccc(OC)cc5N(C)C4[C@@](O)(C(=O)OC)[C@@H]1OC(C)=O)[C@@H]32 (stereo partly specified)
-- reply label 0

-- ask Same for COc1ccc(C(=O)/C=C/c2ccccc2)cc1
-- reply label 0

-- ask Same for C=CCc1ccccc1OCC(O)CNC(C)C (stereo unspecified)
-- reply label 0

-- ask Same for CC(=O)Nc1cccc(O)c1
-- reply label 0

-- ask Same for CC(=O)Oc1c(-c2ccccc2)oc2c(CC=C(C)C)c3c(c(OC(C)=O)c2c1=O)C=CC(C)(C)O3
-- reply label 1

-- ask Same for O=C1CCc2cc(OCCCCc3nnnn3C3CCCCC3)ccc2N1
-- reply label 0

-- ask Same for CC(C)(O)[C@@H]1CC[C@](C)([C@H]2[C@@H](O)C[C@@]3(C)C4C[C@H](O[C@@H]5O[C@H](CO)[C@@H](O)[C@H](O)[C@H]5O)C5C(C)(C)[C@@H](O[C@@H]6OC[C@@H](O)[C@H](O)[C@H]6O)CC[C@@]56C[C@@]46CC[C@]23C)O1 (stereo partly specified)
-- reply label 0

-- ask Same for CCCN1C[C@H](CSC)C[C@@H]2c3cccc4[nH]cc(c34)C[C@H]21
-- reply label 0

-- ask Same for O=C1CC[C@]23C=CC(=O)NCCCCNCCCNC(=O)/C=C/c4ccc(c2c4)O[C@@H]3C1
-- reply label 0

-- ask Same for O=c1cc(-c2cccc(O)c2)oc2ccc(O)cc12
-- reply label 0

-- ask Same for Nc1ccc(C(=O)O)c(O)c1
-- reply label 0

-- ask Same for COC(=O)C1=C(C)NC(C)=C(C(=O)OC)C1c1ccccc1[N+](=O)[O-]
-- reply label 0

-- ask Same for O=c1oc2ccccc2c(O)c1Cc1c(O)c2ccccc2oc1=O
-- reply label 0

-- ask Same for FC(F)(F)C(Cl)Br (stereo unspecified)
-- reply label 0

-- ask Same for CC1=NCCc2c1[nH]c1cc(O)ccc21
-- reply label 0

-- ask Same for CCCCC1C(=O)N(c2ccccc2)N(c2ccccc2)C1=O
-- reply label 0
